Documented IC50 across a set of compounds
# Experiment notes: Inhibition of recombinant full length human His-tagged PDK1 expressed in Baculovirus expression system in presence of ATP measured by […]
Answer in nM, number only, no unit symbol.

As a guide, the following entries are already answered.
INSERT INTO results (compound_string, meas_value) VALUES
  ('O=C(CCNC(=O)c1cccn(Cc2ccc(F)c(F)c2)c1=O)Nc1ccc2c(c1)C(=Cc1cccs1)C(=O)N2', 1340),
  ('O=C(CCNC(=O)c1cccn(Cc2ccc(F)c(F)c2)c1=O)Nc1ccc2c(c1)/C(=C/c1ncc[nH]1)C(=O)N2', 455),
  ('Cc1ccc(C(=O)N[C@@H](C(=O)Nc2ccc3c(c2)/C(=C/c2cnc[nH]2)C(=O)N3)c2ccccc2)c(=O)n1Cc1ccc(F)c(F)c1', 148);

Enquiry: Reported IC50 for Cc1c(Br)cc(C(=O)N[C@@H](C(=O)Nc2ccc3c(c2)/C(=C/c2cnc[nH]2)C(=O)N3)c2ccccc2)c(=O)n1Cc1ccc(F)c(F)c1 : what is it?
Return: 475

Enquiry: Please look up its IC50: Cc1c(Br)cc(C(=O)NCC(=O)Nc2ccc3c(c2)/C(=C/c2cnc[nH]2)C(=O)N3)c(=O)n1Cc1ccc(F)c(F)c1
Return: 134

Enquiry: Given the compound O=C(CCCNC(=O)c1cccn(Cc2ccc(F)c(F)c2)c1=O)Nc1ccc2c(c1)C(=Cc1cccs1)C(=O)N2 , what is its reported IC50?
Return: 5880

Enquiry: Look at this compound and give its reported IC50. Cc1ccc(C(=O)NCC(=O)Nc2ccc3c(c2)/C(=C/c2cnc[nH]2)C(=O)N3)c(=O)n1Cc1ccc(F)c(F)c1
Return: 103

Enquiry: Please give the measured IC50 for this compound: O=C(CCNC(=O)c1cccn(Cc2ccc(F)c(F)c2)c1=O)Nc1ccc2c(c1)/C(=C/c1cnc[nH]1)C(=O)N2
Return: 103

Enquiry: Find the recorded IC50 belonging to O=C(CCCNC(=O)c1cccn(Cc2ccc(F)c(F)c2)c1=O)Nc1ccc2c(c1)/C(=C/c1cnc[nH]1)C(=O)N2 and report it.
Return: 245
